# MEASURED TARGET: T1, LeuB DBD (LeuBM50-125YS, SPR) (Aspergillus fumigatus, UniProt Q4WI12 224-299)
# T1 sequence: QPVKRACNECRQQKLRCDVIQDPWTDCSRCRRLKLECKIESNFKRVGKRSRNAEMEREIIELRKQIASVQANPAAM
# ASSAY NOTES: SPR; 10 uM ZnCl2; 30 ug/ml poly(dAdT); SPR: 10 mM HEPES pH 7.4, 150 mM NaCl, 0.005% P20, 5 mM beta-mercaptoethanol, 10 uM ZnCl2, 25 C, LeuB DBD 6.25-400 nM with 30 ug/ml poly(dAdT); EMSA: as previously described (not given), 1 ug salmon sperm DNA as nonspecific or 100-fold cold probe as competitor
# EXPERIMENTAL SETUP: protein: recombinant; tags: none stated; chain copies: 2; label: biotin; 16 bp duplex
For each record, write down the corresponding pKd.
The meaning of pKd here: minus log10 of the concentration in molar units.

leuA 16 bp SPR duplex (dsDNA) DNA 1: GGACCGATGTCGGATC DNA 2: GATCCGACATCGGTCC has a reported pKd of 7.02

hapX 16 bp SPR duplex (dsDNA) DNA 1: CCGCCGAAATCGGGAA DNA 2: TTCCCGATTTCGGCGG has a reported pKd of 6.80
